assay: Concentrations in plasma and brain of wild-type and M1R KO mice; format: in vivo; conditions: mouse, brain/plasma, po, 20 mg/kg, M1R KO mice, 20 mg/kg p.o.
observable: Kp at 2 h
Just the number.

Item Cc1ccc(Cc2cc3c(=O)n([C@H]4CCCC[C@@H]4O)cnc3c3ccccc23)cn1 [MK‐7622, reference compound] has what recorded Kp at 2 h?
0.21

* * *

assay: Concentrations in rat plasma and brain (IP1 study); type: in vivo; conditions: Long-Evans, plasma, po; rat, 1 mg/kg p.o., 2 h; mean ± SD, n = 6; read-out: Plasma concentration
observable: concentration at 2 h (ng/mL)
State the answer as a number, implicitly in ng/mL.

# lookup: concentration at 2 h of Cc1ccc(Cc2cc3c(=O)n([C@H]4CCCC[C@@H]4O)cnc3c3ccccc23)cn1 [MK‐7622, reference compound]
99.2

* * *

Each entry below lists one item and its recorded concentration at 2 h value.
assay: Concentrations in mouse plasma and brain after single and repeated treatment; assay type: in vivo; details: C57BL/6J, brain (hippocampus), oral, 10 mg/kg, mouse hippocampus, vehicle-pretreated, 10 mg/kg p.o., mean ± SD, read-out: Brain concentration
Kindly answer with a numeric value in ng/g, unit omitted.

• Cc1ccc(Cc2cc3c(=O)n([C@H]4CCCC[C@@H]4O)cnc3c3ccccc23)cn1 [MK‐7622, reference compound] = 137

Proceed to the following item.
Looking for the measured concentration at 2 h of "Cc1c(Cc2ccc(Cl)nc2)cc2c(c1Cl)OCN([C@H]1CCC[C@@H]1O)C2=O" , can you help?
956

* * *

Item-by-item account of concentration at 2 h
test: Concentrations in mouse plasma and brain after single and repeated treatment; assay type: in vivo; details: C57BL/6J, plasma, oral, 30 mg/kg, pretreated with the compound 10 mg/kg p.o. for 13 days, 30 mg/kg p.o., mean ± SD, read-out: Plasma concentration
Put down the number, then write its unit next to it.

I'd like to know its concentration at 2 h. The molecule in question is "Cc1c(Cc2ccc(Cl)nc2)cc2c(c1Cl)OCN([C@H]1CCC[C@@H]1O)C2=O"
5.42 µg/mL

Recorded concentration at 2 h for Cc1ccc(Cc2cc3c(=O)n([C@H]4CCCC[C@@H]4O)cnc3c3ccccc23)cn1 [MK‐7622, reference compound] , please?
2.43 µg/mL

* * *

experiment: Concentrations in rat plasma and brain (IP1 study); assay type: in vivo; settings: Long-Evans, plasma, po; rat, 30 mg/kg p.o., 2 h; mean ± SD, n = 6; read-out: Plasma concentration
observable: concentration at 2 h (ng/mL)
Answer format: numeric, ng/mL implied, no suffix.

Which concentration at 2 h value is on record for Cc1c(Cc2ccc(Cl)nc2)cc2c(c1Cl)OCN([C@H]1CCC[C@@H]1O)C2=O [T‐495] ?
1050

* * *

assay: Concentrations in plasma and brain of wild-type and M1R KO mice; type: in vivo; settings: mouse, plasma, po, 10 mg/kg, M1R KO mice, 10 mg/kg p.o.; mean ± SD, n = 10; read-out: Plasma concentration
observable: concentration at 2 h (ng/mL)
Write the value in ng/mL as a bare number.

Find the recorded concentration at 2 h belonging to Cc1c(Cc2ccc(Cl)nc2)cc2c(c1Cl)OCN([C@H]1CCC[C@@H]1O)C2=O [T‐495] and report it.
1590

# credit: paper PMC6986443
